Hey, just so you know, these numbers are from patent US10800772B2.

# Tested on: HIV-IIIb IN T174I BT
# Test Protocol: Antiviral assay in MT4 cells, HIV-IIIb IN T174I BT virus (from viral breakthrough)
# Assay type: cell-based, HIV-1
# Condition Info: Human immunodeficiency virus 1, IIIB, MT4, 120 h, read-out: T174I BT EC50, MT4 cells, HIV-IIIb IN T174I BT (viral breakthrough), 5 days, CellTiter-Glo
Answer each item with its documented pEC50.
Note on units: pEC50 is unitless, being -log10 of a concentration expressed in mol/L.

Lab request: please report pEC50 under test system HIV-IIIb IN T174I BT for Cc1cc2nc(-c3ccc4c(n3)c(C3CCN([C@H]5CCN(C)C5)CC3)nn4C)sc2c(-c2ccc(Cl)cc2)c1[C@H](OC(C)(C)C)C(=O)O [Compound 172] 7.27

And Cc1cc2nc(-c3ccc4c(c3)c(C3CCN(C[C@@H]5CCN5C)CC3)nn4C)sc2c(-c2ccc(Cl)cc2)c1[C@H](OC(C)(C)C)C(=O)O [Compound 149] ? 7.10

Try this compound next: Cc1cc2nc(-c3ccc4c(n3)c(C3CCN([C@@H]5CCN(C)C5)CC3)nn4C)sc2c(-c2ccc(Cl)cc2)c1[C@H](OC(C)(C)C)C(=O)O [Compound 171] 7.01

Let us now turn to COC(=O)N1CC[C@@H](N2CCC(c3cn(C)c4ncc(-c5nc6cc(C)c([C@H](OC(C)(C)C)C(=O)O)c(-c7ccc(Cl)cc7)c6s5)cc34)CC2)C1 [Compound 201] 7.04

Also need Cc1cc2nc(-c3ccc4c(c3)c(N3CCN(C5COC5)CC3)nn4C)sc2c(-c2ccc(Cl)cc2)c1[C@H](OC(C)(C)C)C(=O)O [Compound 104] , thanks. 6.31

Please do the same for Cc1cc2nc(-c3cnc4c(c3)c(C3CCN(C5COC5)CC3)nn4C)sc2c(-c2ccc(Cl)cc2)c1[C@H](OC(C)(C)C)C(=O)O [Compound 113] as well. 6.06

Queued: COC1(C)CN(c2nn(C)c3ccc(-c4nc5cc(C)c([C@H](OC(C)(C)C)C(=O)O)c(-c6ccc(Cl)cc6)c5s4)cc23)C1 [Compound 131] 5.10

Now the compound COCCN1C(=O)N(c2nn(C)c3ccc(-c4nc5cc(C)c([C@H](OC(C)(C)C)C(=O)O)c(-c6ccc(Cl)cc6)c5s4)cc23)CC1(C)C [Compound 123] 5.84

Please give the result for CCN1CCN(c2nn(C)c3ccc(-c4nc5cc(C)c([C@H](OC(C)(C)C)C(=O)O)c(-c6ccc(Cl)cc6)c5s4)cc23)CC1 [Compound 133] too. 6.36

Same again, this time with COC(=O)N1CC[C@H](N2CCC(c3nn(C)c4ccc(-c5nc6cc(C)c([C@H](OC(C)(C)C)C(=O)O)c(-c7ccc(Cl)cc7)c6s5)nc34)CC2)C1 [Compound 193] 7.06

Please answer likewise for COC(=O)N1CC(N2CCC(c3nn(C)c4ncc(-c5nc6cc(C)c([C@H](OC(C)(C)C)C(=O)O)c(-c7ccc(Cl)cc7)c6s5)cc34)CC2)C1 [Compound 114] 5.96

Repeat for the following compound: COC(=O)N1CC(N2CCC(c3nn(C4CC4)c4ccc(-c5nc6cc(C)c([C@H](OC(C)(C)C)C(=O)O)c(-c7ccc(Cl)cc7)c6s5)cc34)CC2)C1 [Compound 46] 6.45

====

# Test system: HIV-IIIb IN T174I DE
# Test Protocol: Antiviral assay in MT4 cells, HIV-IIIb IN T174I DE virus (from dose escalation passaging)
# Format: cell-based, HIV-1
# Condition Info: Human immunodeficiency virus 1, IIIB, MT4, 120 h, read-out: T174I DE EC50, MT4 cells, HIV-IIIb IN T174I DE (dose escalation), 5 days, CellTiter-Glo
Metric Name: pEC50
In simple prose, pEC50 is minus the logarithm base ten of a concentration in moles per litre.

What value of pEC50 has been reported for the following molecule? COC(=O)N1CC[C@@H](N2CCC(c3nn(C)c4ccc(-c5nc6cc(C)c([C@H](OC(C)(C)C)C(=O)O)c(-c7ccc(Cl)cc7)c6s5)cc34)CC2)C1 [Compound 165] 6.74

Repeat with COC(=O)N1CC(N2CCC(c3nn(C4CC4)c4ccc(-c5nc6cc(C)c([C@H](OC(C)(C)C)C(=O)O)c(-c7ccc(Cl)cc7)c6s5)nc34)CC2)C1 [Compound 180] 6.67

// next record CCOC(=O)N1CCC(c2nn(C)c3ccc(-c4nc5cc(C)c([C@H](OC(C)(C)C)C(=O)O)c(-c6ccc(Cl)cc6)c5s4)cc23)CC1 [Compound 24] 5.96

Subsequent entry: Cc1cc2nc(-c3ccc4c(c3)c(N3CCC3=O)nn4C)sc2c(-c2ccc(Cl)cc2)c1[C@H](OC(C)(C)C)C(=O)O [Compound 3] 5.24

Same read-out for COC(=O)N1CC[C@@H](N2CCC(c3cn(C)c4ncc(-c5nc6cc(C)c([C@H](OC(C)(C)C)C(=O)O)c(-c7ccc(Cl)cc7)c6s5)cc34)CC2)C1 [Compound 201] ? 6.28

Also CC(=O)N1CCC(c2nn(C)c3ccc(-c4nc5cc(C)c([C@H](OC(C)(C)C)C(=O)O)c(-c6ccc(Cl)cc6)c5s4)cc23)C1 (stereo partly shown) [Compound 74] ? 6.23

Cc1cc2nc(-c3ccc4c(c3)c(C3CCN(C(=O)OC(C)(C)C)C3)nn4C)sc2c(-c2ccc(Cl)cc2)c1[C@H](OC(C)(C)C)C(=O)O (stereo partly shown) [Compound 62] ? 6.29

Now try Cc1cc2nc(-c3ccc4[nH]nc(C5CCN(C6COC6)CC5)c4c3)sc2c(-c2ccc(Cl)cc2)c1[C@H](OC(C)(C)C)C(=O)O [Compound 34] . 5.93

What do we get for Cc1cc2nc(-c3ccc4c(c3)c(C3CCN(C5CCOC5)CC3)nn4C)sc2c(-c2ccc(Cl)cc2)c1[C@H](OC(C)(C)C)C(=O)O (stereo in doubt) [Compound 26] ? 6.57

What do you have for COCCN1C(=O)N(c2nn(C)c3ccc(-c4nc5cc(C)c([C@H](OC(C)(C)C)C(=O)O)c(-c6ccc(Cl)cc6)c5s4)cc23)CC1(C)C [Compound 123] ? 5.15

====

Please provide measured pEC50 for the entries that follow.
# System: HIV-IIIb IN T174I BT
# Test Protocol: Antiviral assay in MT4 cells, HIV-IIIb IN T174I BT virus (from viral breakthrough)
# Type: cell-based, HIV-1
# Condition Info: Human immunodeficiency virus 1, IIIB, MT4, 120 h, read-out: T174I BT EC50, MT4 cells, HIV-IIIb IN T174I BT (viral breakthrough), 5 days, CellTiter-Glo
The read-out pEC50 is expressed as -log10 of concentration in moles per litre.

Report pEC50 for COCCN1CCC(c2nn(C)c3ccc(-c4nc5cc(C)c([C@H](OC(C)(C)C)C(=O)O)c(-c6ccc(Cl)cc6)c5s4)cc23)C1 (single isomer, unassigned) [Compound 69] please. 6.01

Similarly, Cc1cc2nc(-c3ccc4c(c3)c(C3CCN(C(=O)C5(C)CCCO5)CC3)nn4C)sc2c(-c2ccc(Cl)cc2)c1[C@H](OC(C)(C)C)C(=O)O (stereo partly drawn) ? 5.89

Please answer likewise for CC(=O)N1CC(N2CCC(c3nn(C)c4ncc(-c5nc6cc(C)c([C@H](OC(C)(C)C)C(=O)O)c(-c7ccc(Cl)cc7)c6s5)cc34)CC2)C1 5.93

====

# System: HIV-IIIb (wildtype)
# Test Protocol: Antiviral assay in MT4 cells, HIV-IIIb wildtype
# Assay type: cell-based, HIV-1
# Condition Info: Human immunodeficiency virus 1, IIIB, MT4, 120 h, read-out: WT EC50
Please respond with Y when measured EC50 is strictly beneath 0.01 µM, and with N in all other cases.

Answer whether the compound COC(=O)N1CC(N2CCC(c3nn(C(F)F)c4ccc(-c5nc6cc(C)c([C@H](OC(C)(C)C)C(=O)O)c(-c7ccc(Cl)cc7)c6s5)nc34)CC2)C1 has EC50 strictly less than 0.01 µM Y

Same lookup for CC(=O)N1CC(N2CCC(c3nn(C(F)F)c4ccc(-c5nc6cc(C)c([C@H](OC(C)(C)C)C(=O)O)c(-c7ccc(Cl)cc7)c6s5)nc34)CC2)C1 , please. Y

And then Cc1cc2nc(-c3ccc4c(c3)c(C3CCOC3)nn4C)sc2c(-c2ccc(Cl)cc2)c1[C@H](OC(C)(C)C)C(=O)O (some centres unmarked) , what is it? Y

Can you check COCCN1C(=O)N(c2nn(C)c3ccc(-c4nc5cc(C)c([C@H](OC(C)(C)C)C(=O)O)c(-c6ccc(Cl)cc6)c5s4)cc23)CC1(C)C next? N

Same again, this time with COCCN(C)C1CN(c2nn(C)c3ccc(-c4nc5cc(C)c([C@H](OC(C)(C)C)C(=O)O)c(-c6ccc(Cl)cc6)c5s4)cc23)C1 N

Another compound to check: COCCN1CCN(c2nn(C)c3ccc(-c4nc5cc(C)c([C@H](OC(C)(C)C)C(=O)O)c(-c6ccc(Cl)cc6)c5s4)cc23)C1=O Y

// same read-out, input: Cc1cc2nc(-c3ccc4c(c3)c(C3CCN(C(=O)C5(C)COC5)CC3)nn4C)sc2c(-c2ccc(Cl)cc2)c1[C@H](OC(C)(C)C)C(=O)O N

And the next one, CN[C@@H]1CCN(c2nn(C)c3ccc(-c4nc5cc(C)c([C@H](OC(C)(C)C)C(=O)O)c(-c6ccc(Cl)cc6)c5s4)cc23)C1 ? N

Same thing, different compound: COC(=O)N1CC(N2CCC(c3nn(C)c4ccc(-c5nc6cc(C)c([C@H](OC(C)(C)C)C(=O)O)c(-c7ccc(Cl)cc7)c6s5)nc34)CC2)C1 Y

Next compound: Cc1cc2nc(-c3ccc4c(c3)c(N3CC5CCC(C3)O5)nn4C)sc2c(-c2ccc(Cl)cc2)c1[C@H](OC(C)(C)C)C(=O)O N

How about Cc1cc2nc(-c3ccc4c(n3)c(N3CCN([C@H]5C[C@@H](O)C5)CC3)nn4C)sc2c(-c2ccc(Cl)cc2)c1[C@H](OC(C)(C)C)C(=O)O ? N

Cool, now Cc1cc2nc(-c3ccc4c(n3)c(C3CCN([C@H]5C[C@H](O)C5)CC3)nn4C)sc2c(-c2ccc(Cl)cc2)c1[C@H](OC(C)(C)C)C(=O)O N

Also need Cc1cc2nc(-c3ccc4c(c3)c(N3CCN(C5(C)COC5)CC3)nn4C)sc2c(-c2ccc(Cl)cc2)c1[C@H](OC(C)(C)C)C(=O)O , thanks. Y
